Provide the reported Oilseed Rape plant response rating of each item.
- Test system: oilseed rape
- assay-remarks: Test C postemergence
- Type: in vivo, Brassica napus
- assay-context: 31 g ai/ha, postemergence; visual rating, scale 0 to 100 (0 no effect, 100 complete control), 13 to 15 days
- Text: […]
Give bare numbers.

Worked set:
[ask] Using oilseed rape as the test system, report measured Oilseed Rape plant response rating of N#Cc1cnn(-c2c(C#N)cccc2Oc2ncc(Cl)cn2)c1 .
[reply] 55

[ask] Using oilseed rape as the test system, report measured Oilseed Rape plant response rating of Clc1cnc(Oc2ccccc2-n2cc(Br)nn2)nc1 .
[reply] 50

[ask] Using oilseed rape as the test system, report measured Oilseed Rape plant response rating of FC(F)(F)c1cnn(-c2c(Br)cccc2Oc2ncc(Cl)cn2)c1 .
[reply] 45

[ask] Using oilseed rape as the test system, report measured Oilseed Rape plant response rating of N#Cc1cn(-c2c(C#N)cccc2Oc2ncc(Cl)cn2)nn1 .
[reply] 0

[ask] Using oilseed rape as the test system, report measured Oilseed Rape plant response rating of FC(F)c1cnn(-c2c(Br)cccc2Oc2ncc(Cl)cn2)c1 .
[reply] 50

Provide reported Oilseed Rape plant response rating for each item, in the same order as listed.
1. N#Cc1cccc(Oc2ncc(Cl)cn2)c1-n1cc(C(F)F)cn1
2. Clc1cnc(Oc2cccc(Cl)c2-n2cc(Cl)cn2)nc1
3. Clc1cnc(Oc2ccccc2-n2cc(C3CC3)nn2)nc1

[reply]
1: 60; 2: 65; 3: 55

###

Provide the reported Plant response rating, Ragweed of each item.
- Tested on: ragweed
- assay-remarks: Test C postemergence
- Type: in vivo, Ambrosia elatior
- assay-context: Postemergence, 62 g ai/ha; scale 0 to 100 (0 no effect, 100 complete control); 13 to 15 days

Worked set:
[ask] State its Plant response rating, Ragweed for this compound: N#Cc1cnn(-c2c(Oc3ncc(F)cn3)cccc2C(F)F)c1
[reply] 55

[ask] State its Plant response rating, Ragweed for this compound: Clc1cnc(Oc2cccc(Cl)c2-n2cc(Cl)cn2)nc1
[reply] 15

[ask] State its Plant response rating, Ragweed for this compound: Clc1cnc(Oc2ccccc2-n2cc(Br)nn2)nc1
[reply] 55

[ask] State its Plant response rating, Ragweed for this compound: FC(F)c1cnn(-c2c(Br)cccc2Oc2ncc(Cl)cn2)c1
[reply] 50

More entries:
[ask] State its Plant response rating, Ragweed for this compound: FC(F)c1cnn(-c2c(Cl)cccc2Oc2ncc(Cl)cn2)c1
[reply] 15

###

- Tested on: blackgrass
- assay-remarks: Test C postemergence
- Type: in vivo, Alopecurus myosuroides
- assay-context: 16 g ai/ha, postemergence; 0 is no effect, 100 is complete control
- Text: […]
Provide the reported Plant response rating (0 to 100), Blackgrass of each item.
Numbers only.

Worked set:
[ask] State its Plant response rating (0 to 100), Blackgrass for this compound: N#Cc1cnn(-c2c(Br)cccc2Oc2ncc(Cl)cn2)c1 [Compound 140]
[reply] 0

[ask] State its Plant response rating (0 to 100), Blackgrass for this compound: Fc1cnc(Oc2ccccc2-n2cc(C(F)F)cn2)nc1 [Compound 228]
[reply] 0

[ask] State its Plant response rating (0 to 100), Blackgrass for this compound: Clc1cnc(Oc2ccccc2-n2cc(Br)nn2)nc1 [Compound 223]
[reply] 0

[ask] State its Plant response rating (0 to 100), Blackgrass for this compound: Cc1cnc(Oc2cccc(C#N)c2-n2cc(C(F)(F)F)cn2)nc1 [Compound 180]
[reply] 0

[ask] State its Plant response rating (0 to 100), Blackgrass for this compound: FC(F)(F)c1cnn(-c2c(Br)cccc2Oc2ncc(Cl)cn2)c1 [Compound 191]
[reply] 0

More entries:
[ask] State its Plant response rating (0 to 100), Blackgrass for this compound: Clc1cnc(Oc2cccc(Br)c2-n2cc(I)nn2)nc1 [Compound 117]
[reply] 5

###

- Test system: pigweed
- assay-remarks: Test A postemergence
- Assay type: in vivo, Amaranthus retroflexus
- assay-context: 1000 g ai/ha, 0 to 100 scale, 0 no effect, 100 complete control
Provide the reported Plant response rating, Pigweed of each item.
Give bare numbers.

[ask] State its Plant response rating, Pigweed for this compound: Clc1cnc(Oc2cccc(I)c2-n2cc(Br)cn2)nc1
[reply] 100

[ask] State its Plant response rating, Pigweed for this compound: Cc1noc(-c2cccc(Oc3ncc(Cl)cn3)c2-n2cc(C(F)(F)F)cn2)n1
[reply] 100

Provide reported Plant response rating, Pigweed for each item, in the same order as listed.
1. O=Cc1cn(-c2c(F)cccc2Oc2ncc(Cl)cn2)nn1
2. N#Cc1cnn(-c2ccccc2Oc2ncc(Br)cn2)n1

[reply]
1. 30
2. 90

###

- Test system: giant foxtail
- assay-remarks: Test A preemergence
- Type: in vivo, Setaria faberii
- assay-context: 500 g ai/ha, 0 to 100 scale, 0 no effect, 100 complete control, approx. 10 days
- Description: […]
Provide the reported Foxtail, Giant plant response rating of each item.

Worked set:
[ask] Using giant foxtail as the test system, report measured Foxtail, Giant plant response rating of Clc1cnc(Oc2cc(Cl)ccc2-n2cc(Br)cn2)nc1 .
[reply] 80

[ask] Using giant foxtail as the test system, report measured Foxtail, Giant plant response rating of FC(F)(F)c1cccc(Oc2ncc(Br)cn2)c1-n1cc(Br)cn1 .
[reply] 100

[ask] Using giant foxtail as the test system, report measured Foxtail, Giant plant response rating of FC(F)(F)c1ccc(Oc2ncc(Cl)cn2)c(-n2cc(Br)cn2)c1 .
[reply] 50

[ask] Using giant foxtail as the test system, report measured Foxtail, Giant plant response rating of Cc1cnc(Oc2cccc(C#N)c2-n2cc(Br)cn2)nc1 .
[reply] 100

[ask] Using giant foxtail as the test system, report measured Foxtail, Giant plant response rating of COc1ccc(Oc2ncc(Br)cn2)c(-n2cc(Br)cn2)c1 .
[reply] 20

Provide reported Foxtail, Giant plant response rating for each item, in the same order as listed.
1. Clc1cnc(Oc2ccccc2-n2cc(-c3ccccc3)cn2)nc1
2. N#Cc1cccc(Oc2ncc(Br)cn2)c1-n1cc(Cl)cn1
3. Clc1cnc(Oc2cc(Cl)ccc2-n2cccn2)nc1
4. N#Cc1cccc(Oc2ncc(I)cn2)c1-n1cc(I)cn1
5. N#Cc1cccc(Oc2ncc(Cl)cn2)c1-n1cc(Cl)cn1

[reply]
90
100
10
70
100

###

Provide the reported Plant response rating, Crabgrass, Large of each item.
- Test system: large (Lg) crabgrass
- assay-remarks: Test C postemergence
- Type: in vivo, Digitaria sanguinalis
- assay-context: Postemergence, 62 g ai/ha; scale 0 to 100 (0 no effect, 100 complete control); 13 to 15 days
- Description: […]
One number for each entry.

Worked set:
[ask] State its Plant response rating, Crabgrass, Large for this compound: FC(F)c1cnn(-c2c(Br)cccc2Oc2ncc(Cl)cn2)c1 [Compound 232]
[reply] 5

[ask] State its Plant response rating, Crabgrass, Large for this compound: Fc1cnc(Oc2ccccc2-n2cc(C(F)F)cn2)nc1 [Compound 228]
[reply] 5

[ask] State its Plant response rating, Crabgrass, Large for this compound: Clc1cnc(Oc2ccccc2-n2cc(I)nn2)nc1 [Compound 222]
[reply] 5

[ask] State its Plant response rating, Crabgrass, Large for this compound: FC(F)Oc1cnn(-c2c(Cl)cccc2Oc2ncc(Cl)cn2)c1 [Compound 258]
[reply] 10

Pending compound:
[ask] State its Plant response rating, Crabgrass, Large for this compound: Clc1cnc(Oc2cccc(Cl)c2-n2cc(Cl)cn2)nc1 [Compound 220]
[reply] 5

###

- Test system: soybean
- assay-remarks: Test C postemergence
- Format: in vivo, Glycine max
- assay-context: 16 g ai/ha, postemergence; 0 is no effect, 100 is complete control
Provide the reported Plant response rating (0 to 100), Soybean of each item.

Worked set:
[ask] State its Plant response rating (0 to 100), Soybean for this compound: FC(F)c1cccc(Oc2ncc(Br)cn2)c1-n1cc(C(F)(F)F)cn1
[reply] 35

[ask] State its Plant response rating (0 to 100), Soybean for this compound: Clc1cnc(Oc2ccccc2-n2cc(Br)nn2)nc1
[reply] 60

[ask] State its Plant response rating (0 to 100), Soybean for this compound: Fc1cnc(Oc2ccccc2-n2cc(C(F)F)cn2)nc1
[reply] 25

[ask] State its Plant response rating (0 to 100), Soybean for this compound: Fc1cnc(Oc2cccc(C(F)F)c2-n2cc(C(F)(F)F)cn2)nc1
[reply] 40

Provide reported Plant response rating (0 to 100), Soybean for each item, in the same order as listed.
1. FC(F)c1cnn(-c2c(Br)cccc2Oc2ncc(Cl)cn2)c1
2. Cc1cnc(Oc2cccc(C#N)c2-n2cc(C(F)(F)F)cn2)nc1

[reply]
[30, 85]

###

- Tested on: morningglory
- assay-remarks: Test A preemergence
- Format: in vivo, Ipomoea spp.
- assay-context: 500 g ai/ha, 0 to 100 scale, 0 no effect, 100 complete control, approx. 10 days
Provide the reported Morningglory plant response rating of each item.
One number for each entry.

Provide reported Morningglory plant response rating for each item, in the same order as listed.
1. Clc1cnc(Oc2cc(Cl)ccc2-n2cc(Br)cn2)nc1 [Compound 51]
2. FC(F)(F)c1ccc(Oc2ncc(Cl)cn2)c(-n2cc(Br)cn2)c1 [Compound 48]
3. Cc1cnn(-c2c(C#N)cccc2Oc2ncc(Cl)cn2)c1 [Compound 95]

[reply]
[0, 0, 100]

Provide reported Morningglory plant response rating for each item, in the same order as listed.
1. Clc1cnc(Oc2cc(Cl)ccc2-n2cccn2)nc1 [Compound 49]
2. COc1cccc(-n2cc(Br)cn2)c1Oc1ncc(Cl)cn1 [Compound 41]
3. N#Cc1cccc(Oc2ncc(Br)cn2)c1-n1cc(Br)cn1 [Compound 57]

[reply]
[0, 0, 40]

Provide reported Morningglory plant response rating for each item, in the same order as listed.
1. Cc1cnc(Oc2cccc(C#N)c2-n2cc(Br)cn2)nc1 [Compound 76]
2. Clc1cnc(Oc2ccccc2-n2cc(-c3ccccc3)cn2)nc1 [Compound 22]
3. FC(F)(F)c1cnc(Oc2ccccc2-n2ccc(C(F)(F)F)n2)nc1 [Compound 4]

[reply]
[80, 0, 0]
